Test system: corn (Zea mays)
measurement-description: Test A pre-/postemergence plant response
Format: in vivo
assay-context: Postemergence, 125 g ai/ha; 0 to 100 scale, 0 no effect, 100 complete control
reported-endpoint: Plant response rating, Corn
Kindly provide the number alone.

Task: Give me measured Plant response rating, Corn, please, for this molecule: `Cc1cc(-c2ccc(Cl)cc2)nn1-c1c(OC(=O)c2cccc(Cl)c2)cnn(C)c1=O`
Result: 50

Task: Give me measured Plant response rating, Corn, please, for this molecule: `Cc1ccc(-c2ccc(Cl)cc2)cc1-c1c(O)cnn(C)c1=O`
Result: 50

Task: Give me measured Plant response rating, Corn, please, for this molecule: `Cc1cc(-c2ccc(Cl)cc2)nn1-c1c(OS(=O)(=O)c2cccc3ccccc23)cnn(C)c1=O`
Result: 10

Task: Give me measured Plant response rating, Corn, please, for this molecule: `Cc1cc(-c2ccc(Cl)cc2)nn1-c1c(OC(=O)c2ccccc2Cl)cnn(C)c1=O`
Result: 90

----------
Tested on: giant foxtail (Setaria faberii)
measurement-description: Test B pre-/postemergence plant response
Assay type: in vivo
assay-context: Preemergence, 62 g ai/ha; scale 0 to 100
reported-endpoint: Plant response rating, Foxtail, Giant
Kindly provide the number alone.

Task: Give me measured Plant response rating, Foxtail, Giant, please, for this compound: `Cc1cc(-c2ccc(Cl)cc2)nn1-c1c(OC(=O)Oc2ccccc2)cnn(C)c1=O`
Result: 55

Task: Give me measured Plant response rating, Foxtail, Giant, please, for this compound: `Cc1cc(-c2ccc(Cl)cc2)nn1-c1c(OC(=O)c2ccccc2Cl)cnn(C)c1=O`
Result: 100

Task: Give me measured Plant response rating, Foxtail, Giant, please, for this compound: `Cc1cc(-c2ccc(C(F)(F)F)cc2)nn1-c1c(O)c(C(C)C)nn(C)c1=O`
Result: 20

Task: Give me measured Plant response rating, Foxtail, Giant, please, for this compound: `Cc1cc(-c2ccc(Cl)cc2)nn1-c1c(OS(=O)(=O)c2cccc3ccccc23)cnn(C)c1=O`
Result: 100

Task: Give me measured Plant response rating, Foxtail, Giant, please, for this compound: `Cc1cc(-c2ccc(Br)cc2)nn1-c1c(OC(=O)C2CC2)cnn(C)c1=O`
Result: 100

Task: Give me measured Plant response rating, Foxtail, Giant, please, for this compound: `Cc1cc(-c2ccc(Cl)cc2)nn1-c1c(OC(=O)c2cccs2)cnn(C)c1=O`
Result: 98

----------
Test system: woolly cupgrass (Eriochloa villosa)
measurement-description: Test B pre-/postemergence plant response
Assay type: in vivo
assay-context: Preemergence, 62 g ai/ha; scale 0 to 100
Provide the reported Plant response rating, Cupgrass, Woolly of each item.
Kindly provide the number alone.

Task: Give me measured Plant response rating, Cupgrass, Woolly, please, for this molecule: `CCc1cc(-c2ccc(Cl)cc2)nn1-c1c(O)cnn(C)c1=O`
Result: 100

Task: Give me measured Plant response rating, Cupgrass, Woolly, please, for this molecule: `Cc1cc(-c2ccc(C(F)(F)F)cc2)nn1-c1c(O)c(C(C)C)nn(C)c1=O`
Result: 55

Task: Give me measured Plant response rating, Cupgrass, Woolly, please, for this molecule: `Cc1cc(-c2ccc(Cl)cc2)nn1-c1c(OC(=O)c2ccccc2Cl)cnn(C)c1=O`
Result: 100

Task: Give me measured Plant response rating, Cupgrass, Woolly, please, for this molecule: `CCc1cc(-c2ccc(C(F)(F)F)cc2)nn1-c1c(O)c(C)nn(C)c1=O`
Result: 25

Task: Give me measured Plant response rating, Cupgrass, Woolly, please, for this molecule: `Cc1cc(-c2ccc(Cl)cc2)nn1-c1c(OS(=O)(=O)C(C)C)cnn(C)c1=O`
Result: 100

----------
Provide the reported Bermudagrass plant response rating of each item.
System: bermudagrass (Cynodon dactylon)
measurement-description: Test B pre-/postemergence plant response
Format: in vivo
assay-context: Preemergence, 8 g ai/ha; scale 0 to 100 (0 no effect, 100 complete control)
Kindly provide the number alone.

Task: Give me measured Bermudagrass plant response rating, please, for this compound: `CCCc1cc(-c2ccc(Cl)cc2)nn1-c1c(O)cnn(C)c1=O`
Result: 0

Task: Give me measured Bermudagrass plant response rating, please, for this compound: `CCc1cc(-c2ccc(C(F)(F)F)cc2)nn1-c1c(O)c(OC)nn(C)c1=O`
Result: 0

Task: Give me measured Bermudagrass plant response rating, please, for this compound: `Cc1cc(-c2ccc(Cl)cc2)nn1-c1c(OC(=O)CC(C)C)cnn(C)c1=O`
Result: 90

Task: Give me measured Bermudagrass plant response rating, please, for this compound: `Cc1cc(-c2ccc(Cl)cc2)nn1-c1c(OC(=O)c2ccccc2Cl)cnn(C)c1=O`
Result: 60

Task: Give me measured Bermudagrass plant response rating, please, for this compound: `Cc1cc(-c2ccc(C(F)(F)F)c(F)c2)nn1-c1c(O)c(C(F)(F)F)nn(C)c1=O`
Result: 0

Task: Give me measured Bermudagrass plant response rating, please, for this compound: `Cc1cc(-c2ccc(Cl)cc2)nn1-c1c(OS(=O)(=O)c2ccccc2)cnn(C)c1=O`
Result: 98

----------
System: wild oat (Avena fatua)
measurement-description: Test B pre-/postemergence plant response
Format: in vivo
assay-context: 8 g ai/ha, postemergence; 0-100 scale
reported-endpoint: Oat, Wild plant response rating

Task: Please report the measured Oat, Wild plant response rating for `Cc1cc(-c2ccc(C(F)(F)F)c(F)c2)nn1-c1c(O)c(C(F)(F)F)nn(C)c1=O` tested on wild oat (Avena fatua).
Result: 90

Task: Please report the measured Oat, Wild plant response rating for `Cc1cc(-c2ccc(Cl)cc2)nn1-c1c(OS(=O)(=O)c2ccccc2)cnn(C)c1=O` tested on wild oat (Avena fatua).
Result: 50

Task: Please report the measured Oat, Wild plant response rating for `Cc1nn(C)c(=O)c(-n2nc(-c3ccc(Cl)cc3)cc2Cl)c1O` tested on wild oat (Avena fatua).
Result: 45

Task: Please report the measured Oat, Wild plant response rating for `Cc1cc(-c2ccc(Cl)cc2)nn1-c1c(OC(=O)CC(C)C)cnn(C)c1=O` tested on wild oat (Avena fatua).
Result: 85

Task: Please report the measured Oat, Wild plant response rating for `CCc1c(C)c(-c2ccc(Br)cc2)nn1-c1c(O)cnn(C)c1=O` tested on wild oat (Avena fatua).
Result: 98

Task: Please report the measured Oat, Wild plant response rating for `CCCc1cc(-c2ccc(C(F)(F)F)cc2)nn1-c1c(O)cnn(C)c1=O` tested on wild oat (Avena fatua).
Result: 100

----------
Tested on: winter barley (Hordeum vulgare)
measurement-description: Test C pre-/postemergence plant response
Assay type: in vivo
assay-context: Preemergence, 16 g ai/ha; scale 0 to 100 (0 no effect, 100 complete control)
Returns one of y or n; y when Plant response rating, Barley, Winter is >= 20.

Task: Could you please find out whether CCc1cc(-c2ccc(Cl)cc2)nn1-c1c(O)cnn(C)c1=O [Compound 21] has Plant response rating, Barley, Winter that meets 20 or exceeds it?
Result: y

Task: Could you please find out whether Cc1cc(-c2ccc(Cl)cc2)nn1-c1c(OC(=O)Oc2ccccc2)cnn(C)c1=O [Compound 54] has Plant response rating, Barley, Winter that meets 20 or exceeds it?
Result: n

Task: Could you please find out whether CCOC(=O)Oc1cnn(C)c(=O)c1-n1nc(-c2ccc(Cl)cc2)cc1C [Compound 53] has Plant response rating, Barley, Winter that meets 20 or exceeds it?
Result: n

Task: Could you please find out whether Cc1cc(-c2ccc(Cl)cc2)nn1-c1c(OC(=O)CC(C)C)cnn(C)c1=O [Compound 37] has Plant response rating, Barley, Winter that meets 20 or exceeds it?
Result: n

Task: Could you please find out whether Cc1cc(-c2ccc(C(F)(F)F)c(F)c2)nn1-c1c(O)c(C(F)(F)F)nn(C)c1=O [Compound 44] has Plant response rating, Barley, Winter that meets 20 or exceeds it?
Result: y

----------
Tested on: downy bromegrass (Bromus tectorum)
measurement-description: Test B pre-/postemergence plant response
Format: in vivo
assay-context: Postemergence, 31 g ai/ha; scale 0 to 100, 0 no effect, 100 complete control
reported-endpoint: Plant response rating, Bromegrass, Downy
Kindly provide the number alone.

Task: Give me measured Plant response rating, Bromegrass, Downy, please, for this compound: `Cc1cc(-c2ccc(C(F)(F)F)c(F)c2)nn1-c1c(O)c(C(F)(F)F)nn(C)c1=O`
Result: 70

Task: Give me measured Plant response rating, Bromegrass, Downy, please, for this compound: `CCc1cc(-c2ccc(C(F)(F)F)cc2)nn1-c1c(O)c(C)nn(C)c1=O`
Result: 60

Task: Give me measured Plant response rating, Bromegrass, Downy, please, for this compound: `Cc1cc(-c2ccc(Cl)cc2)nn1-c1c(OC(=O)CC(C)C)cnn(C)c1=O`
Result: 55

Task: Give me measured Plant response rating, Bromegrass, Downy, please, for this compound: `Cc1cc(-c2ccc(Cl)cc2)nn1-c1c(OC(=O)c2cccc(Cl)c2)cnn(C)c1=O`
Result: 45

----------
Provide the reported Wheat plant response rating of each item.
Tested on: wheat (Triticum aestivum)
measurement-description: Test B pre-/postemergence plant response
Format: in vivo
assay-context: 8 g ai/ha, postemergence; 0-100 scale
Kindly provide the number alone.

Task: Give me measured Wheat plant response rating, please, for this compound: `Cc1nn(C)c(=O)c(-c2nc(-c3ccc(Cl)cc3)sc2C)c1O`
Result: 0

Task: Give me measured Wheat plant response rating, please, for this compound: `Cc1cc(-c2ccc(C(F)(F)F)c(F)c2)nn1-c1c(O)c(C(F)(F)F)nn(C)c1=O`
Result: 55

Task: Give me measured Wheat plant response rating, please, for this compound: `CCOC(=O)Oc1cnn(C)c(=O)c1-n1nc(-c2ccc(Cl)cc2)cc1C`
Result: 5

Task: Give me measured Wheat plant response rating, please, for this compound: `Cc1cc(-c2ccc(Cl)cc2)nn1-c1c(OC(=O)c2ccccc2Cl)cnn(C)c1=O`
Result: 10
